// provenance: paper PMC12383145

Entries and their hemolysis at 2 h values follow.
# assay text: Hemolysis assay
# Type: cell-based
# condition details: at 200 µg/mL (highest tested concentration), 2 h, 37 °C; read-out: hemolysis
Non-standard residues stand in square brackets, D forms with d. Residues, ends and D or L forms follow the SMILES beside them. 2Abz = Nc1ccccc1C(=O)O
Your answer should be a plain number; it is taken to be in %.

- compound: "N=C(N)NCCC[C@H](NC(=O)[C@H](Cc1c[nH]c2ccccc12)NC(=O)[C@H](CCC(N)=O)NC(=O)[C@H](Cc1c[nH]c2ccccc12)NC(=O)[C@H](CCCNC(=N)N)NC(=O)[C@H](Cc1c[nH]c2ccccc12)NC(=O)[C@H](CCC(N)=O)NC(=O)[C@H](Cc1c[nH]c2ccccc12)NC(=O)[C@@H](N)CCCNC(=N)N)C(=O)Nc1ccccc1C(N)=O [1-Abz, RWQWRWQWR-(2-Abz)] (H-RWQWRWQWR[2Abz]-NH2)"
  recorded endpoint: "hemolysis at 2 h"
  result number: 1.5

Attention now shifts to the item below.
Looking for the measured hemolysis at 2 h of N=C(N)NCCC[C@H](NC(=O)[C@H](Cc1c[nH]c2ccccc12)NC(=O)[C@H](CCC(N)=O)NC(=O)[C@H](Cc1c[nH]c2ccccc12)NC(=O)[C@H](CCCNC(=N)N)NC(=O)[C@H](Cc1c[nH]c2ccccc12)NC(=O)[C@H](CCC(N)=O)NC(=O)[C@H](Cc1c[nH]c2ccccc12)NC(=O)[C@H](CCCNC(=N)N)NC(=O)c1ccccc1N)C(N)=O [Abz-1, (2-Abz)-RWQWRWQWR] (H-[2Abz]RWQWRWQWR-NH2) , can you help?
13.4

---

# assay text: Hemolysis assay
# Assay type: cell-based
# condition details: at 200 µg/mL (highest tested concentration), 2 h, 37 °C; read-out: hemolysis
No end group written: not given here.
recorded endpoint: hemolysis (%)
Your answer should be a plain number; it is taken to be in %.

Looking for the measured hemolysis of RWQWRWQWR-NH2 [peptide 1, RWQWRWQWR] , can you help?
4.5

---

# assay text: Hemolysis assay
# Format: cell-based
# condition details: Percentage of hemolysis
Residues, ends and D or L forms follow the SMILES beside them. *: point of attachment. RhodamineB = CCN(CC)c1ccc2c(-c3ccccc3C(=O)*)c3ccc(=[N+](CC)CC)cc-3oc2c1
recorded endpoint: hemolysis (%)
Your answer should be a plain number; it is taken to be in %.

Looking for the measured hemolysis of CCN(CC)c1ccc2c(-c3ccccc3C(=O)N[C@@H](CCCNC(=N)N)C(=O)N[C@@H](Cc3c[nH]c4ccccc34)C(=O)N[C@@H](CCC(N)=O)C(=O)N[C@@H](Cc3c[nH]c4ccccc34)C(=O)N[C@@H](CCCNC(=N)N)C(=O)N[C@@H](Cc3c[nH]c4ccccc34)C(=O)N[C@@H](CCC(N)=O)C(=O)N[C@@H](Cc3c[nH]c4ccccc34)C(=O)N[C@@H](CCCNC(=N)N)C(N)=O)c3ccc(=[N+](CC)CC)cc-3oc2c1 [RhB-1, RhB-RWQWRWQWR] (RhodamineB-RWQWRWQWR-NH2) , can you help?
19

---

# assay text: Hemolysis assay
# Type: cell-based
# condition details: Percentage of hemolysis
Residues, ends and D or L forms follow the SMILES beside them. *: point of attachment. 5FAM = O=C1OC2(c3ccc(O)cc3Oc3cc(O)ccc32)c2ccc(C(=O)*)cc21
recorded endpoint: hemolysis at 2 h (%)
Your answer should be a plain number; it is taken to be in %.

Looking for the measured hemolysis at 2 h of N=C(N)NCCC[C@H](NC(=O)[C@H](Cc1c[nH]c2ccccc12)NC(=O)[C@H](CCC(N)=O)NC(=O)[C@H](Cc1c[nH]c2ccccc12)NC(=O)[C@H](CCCNC(=N)N)NC(=O)[C@H](Cc1c[nH]c2ccccc12)NC(=O)[C@H](CCC(N)=O)NC(=O)[C@H](Cc1c[nH]c2ccccc12)NC(=O)[C@H](CCCNC(=N)N)NC(=O)c1ccc2c(c1)C(=O)OC21c2ccc(O)cc2Oc2cc(O)ccc21)C(N)=O [FAM-1, FAM-RWQWRWQWR] (5FAM-RWQWRWQWR-NH2) , can you help?
17
